- System: Leishmania donovani
- Procedure Details: Leishmania intramacrophage assay
- Assay type: functional, organism-based
- Cond: Leishmania donovani
Mark each entry YES if its IC50 sits below 20 µM, and NO for all others.

Compound: Cc1nccn1CCCn1cncc1-c1ccc2c(c1)CCCN2C
Target Desc: Leishmania donovani
Answer Label: NO

Compound: CCN(CC)c1ccc2ccc(C(=O)N3CCCCO3)cn12
Target Desc: Leishmania donovani
Answer Label: NO

Compound: COc1ccc(OCCc2sc(C3(O)CCCNCC3)nc2C)cc1 (configuration not stated)
Target Desc: Leishmania donovani
Answer Label: NO

Compound: Cc1cnc(N2CCc3onc(COc4cccnc4)c3C2)nc1
Target Desc: Leishmania donovani
Answer Label: NO

Compound: CC(O)CN1CCN(Cc2csc(-c3ncccn3)n2)CC1 (configuration not stated)
Target Desc: Leishmania donovani
Answer Label: NO

Compound: Clc1ccccc1-c1cc(CNc2ncnc3c2CCNCC3)no1
Target Desc: Leishmania donovani
Answer Label: YES

Compound: CN1CCN(CC(NCc2cccc(O)c2)c2ccccc2)CC1 (configuration not stated)
Target Desc: Leishmania donovani
Answer Label: YES

Compound: Cc1[nH]/c(=N\C(=O)c2csc(NC3CC3)n2)sc1C
Target Desc: Leishmania donovani
Answer Label: NO

Compound: CN1[C@H]2CC[C@@H]1CN(C(=O)c1ccc(-c3ccccc3)[nH]1)CC2
Target Desc: Leishmania donovani
Answer Label: NO

Compound: Cc1nccn1CCCn1cncc1-c1ccc2c(c1)CC(C)N2C (configuration not stated)
Target Desc: Leishmania donovani
Answer Label: NO

Compound: Cc1cc(C(F)(F)F)nc(N2CCN(Cc3nccn3C)CC2)n1
Target Desc: Leishmania donovani
Answer Label: NO

Compound: Cc1cc(C(F)(F)F)nc(CCNc2nc(C)nc3sccc23)n1
Target Desc: Leishmania donovani
Answer Label: NO
